# MEASURED_TARGET: T1, human IL-23 (human, UniProt P29460 23-328; Q9NPF7 20-189)
# T1 construct: Recombinant (Ebioscience); HIS-tagged in flow cytometry, biotinylated in some assays; also called hIL-23; rhIL-23
# T1 sequence 1: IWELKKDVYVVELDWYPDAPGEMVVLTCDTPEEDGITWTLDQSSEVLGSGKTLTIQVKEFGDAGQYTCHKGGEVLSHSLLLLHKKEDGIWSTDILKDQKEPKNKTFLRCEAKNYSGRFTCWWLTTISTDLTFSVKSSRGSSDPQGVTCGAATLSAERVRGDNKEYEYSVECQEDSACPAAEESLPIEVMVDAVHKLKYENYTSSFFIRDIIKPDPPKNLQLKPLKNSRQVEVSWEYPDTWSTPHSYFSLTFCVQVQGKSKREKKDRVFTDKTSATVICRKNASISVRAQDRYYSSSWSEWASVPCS
# T1 sequence 2: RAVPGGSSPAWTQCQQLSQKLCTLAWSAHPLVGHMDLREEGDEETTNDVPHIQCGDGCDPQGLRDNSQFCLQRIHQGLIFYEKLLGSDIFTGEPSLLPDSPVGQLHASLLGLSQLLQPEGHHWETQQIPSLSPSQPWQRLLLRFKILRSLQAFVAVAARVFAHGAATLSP
# ASSAY_OVERVIEW: SPR, single 81 nM analyte, scFv via FLAG
pKd: −log10 of the molar value.
For each entry below, report its pKd value.

Query string: State, in one line, measured pKd of scFv combo. # 8 (scFv, scFv-80 with VH F29L, Y59S; not shown: proprietary C-terminal FLAG tag) scFv: QVQLVQSGAEVKKPGASVKVSCKASGYTLTDYYLHWVRQAPGQGLEWMGWIDPENGDTESAPKFQGRVTMTTDTSTSTAYMELRSLRSDDTAVYYCNANKELRYFDVWGQGTMVTVSSGGGGSGGGGSGGGGSEIVMTQSPATLSVSPGERATLSCRASQSISINLHWYQQKPGQAPRLLIYFASQSISGIPARFSGSGSGTEFTLTISSLQSEDFAVYYCQQSNSFPLTFGGGTKVEIKR
Result string: ≥ 11.12

Query string: State, in one line, measured pKd of scFv combo. # 6 (scFv, scFv-80 with VH T28A, Y59H, T68S; not shown: proprietary C-terminal FLAG tag) scFv: QVQLVQSGAEVKKPGASVKVSCKASGYAFTDYYLHWVRQAPGQGLEWMGWIDPENGDTEHAPKFQGRVSMTTDTSTSTAYMELRSLRSDDTAVYYCNANKELRYFDVWGQGTMVTVSSGGGGSGGGGSGGGGSEIVMTQSPATLSVSPGERATLSCRASQSISINLHWYQQKPGQAPRLLIYFASQSISGIPARFSGSGSGTEFTLTISSLQSEDFAVYYCQQSNSFPLTFGGGTKVEIKR
Result string: ≥ 10.39

Query string: State, in one line, measured pKd of scFv combo. # 13 (scFv, scFv-80 with VH T28A, Q43R; VL I55T; not shown: proprietary C-terminal FLAG tag) scFv: QVQLVQSGAEVKKPGASVKVSCKASGYAFTDYYLHWVRQAPGRGLEWMGWIDPENGDTEYAPKFQGRVTMTTDTSTSTAYMELRSLRSDDTAVYYCNANKELRYFDVWGQGTMVTVSSGGGGSGGGGSGGGGSEIVMTQSPATLSVSPGERATLSCRASQSISINLHWYQQKPGQAPRLLIYFASQSTSGIPARFSGSGSGTEFTLTISSLQSEDFAVYYCQQSNSFPLTFGGGTKVEIKR
Result string: 10.29

Cited source for all entries: patent US20110262445A1
